// reported growth per item
system: E. coli TESEC Mtb Alr; assay: growth (OD600 after 10 h); higher = more growth (less inhibition); conditions: arabinose 1000000 nM; compound 0.1 mM; raw OD600 reference: median of DMSO wells 0.193, cell-free background 0.041
Where a name gives a salt, the structure may show the parent alone.
Parameter Measured: growth

Compound: O[C@@H]1CCCC[C@H]1N1CCC(c2ccccc2)CC1 [L(-)-vesamicol hydrochloride]
Parameter Measured: growth
Measured Number: 0.182

Compound: C[C@@H]1C[C@@H]([C@H](O)CC2CC(=O)NC(=O)C2)C(=O)[C@@H](C)C1 [Cycloheximide]
Parameter Measured: growth
Measured Number: 0.186

Compound: C=CCN1CC[C@]23c4c5ccc(O)c4O[C@H]2C(=O)CC[C@@]3(O)[C@H]1C5 [Naloxone hydrochloride]
Parameter Measured: growth
Measured Number: 0.178

Compound: CCC1(c2ccc(N)cc2)CCC(=O)NC1=O (stereo not given) [Glutethimide, para-amino]
Parameter Measured: growth
Measured Number: 0.178

Compound: CCCC(C)C1(CC)C(=O)NC(=O)NC1=O (stereo not given)
Parameter Measured: growth
Measured Number: 0.203
